target: GABA-A receptor; agonist GABA site; assay: Positive allosteric modulation of recombinant alpha1beta2gamma2 GABAA receptor (unknown origin) expressed in LTK cells assessed as potentiation of GABA-induced channel current treated for 30 s prior to GABA stimulation for 2s by Q-patch assay; assay type: cell-based, Homo sapiens
// EC50 lookup, one value per entry

| smiles.input | EC50 |
| --- | --- |
| C[C@@]1(O)CC[C@H]2[C@H](CC[C@@H]3[C@@H]2CC[C@]2(C)[C@@H](C(=O)Cn4cc5ccncc5n4)CC[C@@H]32)C1 | > 3000 nM |
| C[C@@]1(O)CC[C@H]2[C@@H](CC[C@@H]3[C@@H]2CC[C@]2(C)[C@@H](C(=O)Cn4ccnc4)CC[C@@H]32)C1 | > 3000 nM |
| C[C@@]1(O)CC[C@H]2[C@H](CC[C@@H]3[C@@H]2CC[C@]2(C)[C@@H](C(=O)Cn4nccn4)CC[C@@H]32)C1 | 125 nM |
